The values you see were collected from PubChem BioAssay (NCI).

# Test system: MDA-MB-231 breast
# protocol: NCI-60 one-dose screen, 48 h (100 = growth as untreated, 0 = no growth, -100 = all killed)
# experimental-setup: 10 µM unless noted
This is part of a sample that, as a whole, favours compounds with a hit. Of some 83,000 tested, about 20% had one in any assay.
# note: exactly 80% is not below, so it is not met; use met for growth strictly under it

>>> group_label("CCOC(=O)c1nnn(-c2no[n+]([O-])c2-c2ccc(OC)cc2)c1COc1cccc2cccnc12")
"met"
>>> group_label("O=CN1N=C(c2cccc(Nc3ccnc4cc(Cl)ccc34)c2)CC1c1ccc(Cl)cc1 (centres undefined)")
"met"
>>> group_label("CNC(=O)c1cc(Oc2ccc3c(c2)sc2nc(-c4ccc(Cl)c(C(F)(F)F)c4)cn23)ccn1")
"met"
>>> group_label("COc1ccc2c(O)c(/C=C3\\N=Nc4ncccc43)oc2c1C[C@@H]1CCNC[C@H]1F")
"met"
>>> group_label("CC(C)(C)c1ccc(S(=O)(=O)Oc2ccc(-c3sc4cc(OS(=O)(=O)c5ccc(C(C)(C)C)cc5)ccc4c3C(=O)c3ccc(OCCN4CCCCC4)cc3)cc2)cc1")
"not met"
>>> group_label("c1ccc(-c2nc3ccccc3[nH]2)c(OCCCCCOc2ccccc2-c2nc3ccccc3[nH]2)c1")
"met"
>>> group_label("O=c1oc2c(cc1-c1ccccc1)c(=O)[nH]c1ccccc12")
"not met"
>>> group_label("O=C(Nc1ccc(Oc2cccc(Cl)c2)c(Cl)c1)c1cccnn1")
"not met"
>>> group_label("Cc1ccc(OCCOCCOCCOc2ccc(C)n(O)c2=S)c(=S)n1O")
"met"

* * *

# System: MOLT-4 leukemia
# protocol: NCI-60 one-dose screen, 48 h (100 = growth as untreated, 0 = no growth, -100 = all killed)
# experimental-setup: 10 µM unless noted
This is part of a sample that, as a whole, favours compounds with a hit. Of some 83,000 tested, about 20% had one in any assay. The source made the active and inactive calls. How the source made its calls: active means growth percent below 10; inactive means the rest.
readout-type: growth

>>> val("C=C(C)[C@@H]1CC[C@]2(C)[C@H](C=CC3=C4C[C@@](C)(CO)CC[C@]4(C)CC[C@]32C)[C@@]1(C)CCCN")
"-10.5% (active)"
>>> val("COc1ccc(Nc2ncc(I)c(NCCCNC(=O)C3CCC3)n2)cc1")
"10.5% (inactive)"
>>> val("Cc1nc(N/N=C/c2cn(-c3ccccc3)nc2-c2cc3ccccc3oc2=O)sc1N=Nc1ccccc1")
"85.1% (inactive)"
>>> val("COc1ccc(/C=N/NC(=O)Cn2c(-c3ccc(S(C)(=O)=O)cc3)nc3ccccc32)cc1")
"141% (inactive)"
